B1: TPR t1 (parent)
chain: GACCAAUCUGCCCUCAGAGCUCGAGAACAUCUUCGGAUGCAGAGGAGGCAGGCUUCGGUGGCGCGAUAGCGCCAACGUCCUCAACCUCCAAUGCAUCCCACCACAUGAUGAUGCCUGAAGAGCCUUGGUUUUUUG

Variants of: B1
METHOD DESCRIPTION: polymerase ribozyme fitness, log enrichment relative to wild type (log ratio); higher = more active; in vitro selection for triplet polymerase activity
# key: entry, value: polymerase ribozyme fitness (log ratio)
I'd appreciate a reply containing only the number, no unit.

variant_code="U7A C13G G63U G93A C102G C115U A121G" measured_result=-7.01
variant_code="C15A G51A A74U C79G A111C A118U" measured_result=-6.36
variant_code="G19A G60A C114A" measured_result=-1.62
variant_code="A27C C124A" measured_result=-0.901
variant_code="C70U G113U" measured_result=-2.81
variant_code="U9G U96G" measured_result=-0.204
variant_code="G47U G61A C85A" measured_result=-1.18
variant_code="A6U C15A C56A A105C" measured_result=-4.85
variant_code="C11G C34U C86G A119U" measured_result=-5.27
variant_code="A5U C102U G122A" measured_result=-3.47

polymerase ribozyme fitness (log ratio) reported for this variant A16U A41G U78G A100U : -3.98

polymerase ribozyme fitness (log ratio) reported for this variant G48U C49A C89G : -3.48

polymerase ribozyme fitness (log ratio) reported for this variant G39A C49A G122A C123G : 0.869

polymerase ribozyme fitness (log ratio) reported for this variant C20A G36U G77U U116C : -5.13

polymerase ribozyme fitness (log ratio) reported for this variant U81G C88A : -2.78

polymerase ribozyme fitness (log ratio) reported for this variant U33C G60U : -3.44

polymerase ribozyme fitness (log ratio) reported for this variant G44U C72G : -1.28

polymerase ribozyme fitness (log ratio) reported for this variant C53U G69A A84C : -3.13

polymerase ribozyme fitness (log ratio) reported for this variant A29G C97A : -5.53

polymerase ribozyme fitness (log ratio) reported for this variant A41U G48C C70U : -3.25

polymerase ribozyme fitness (log ratio) reported for this variant A74U U112A G128A : -1.59
